Target: Prostaglandin G/H synthase 1 (Mus musculus) (UniProt P22437)
Sequence (whole entry): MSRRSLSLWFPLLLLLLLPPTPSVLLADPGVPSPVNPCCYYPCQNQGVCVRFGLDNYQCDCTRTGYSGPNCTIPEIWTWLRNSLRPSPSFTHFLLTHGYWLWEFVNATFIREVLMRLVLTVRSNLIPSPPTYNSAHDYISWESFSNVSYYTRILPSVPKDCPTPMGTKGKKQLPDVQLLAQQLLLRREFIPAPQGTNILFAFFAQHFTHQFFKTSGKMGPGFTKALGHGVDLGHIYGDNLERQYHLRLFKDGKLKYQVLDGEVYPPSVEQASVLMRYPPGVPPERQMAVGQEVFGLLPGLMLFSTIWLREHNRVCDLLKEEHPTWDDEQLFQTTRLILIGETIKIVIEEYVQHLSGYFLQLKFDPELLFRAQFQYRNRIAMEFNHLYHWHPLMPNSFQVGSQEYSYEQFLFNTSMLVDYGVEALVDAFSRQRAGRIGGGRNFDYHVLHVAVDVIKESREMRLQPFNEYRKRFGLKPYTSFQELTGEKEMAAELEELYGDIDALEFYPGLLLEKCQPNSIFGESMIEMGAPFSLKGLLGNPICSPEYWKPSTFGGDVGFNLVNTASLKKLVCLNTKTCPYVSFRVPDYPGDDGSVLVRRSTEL
Assay: Inhibition of COX1-mediated PGE2 production in mouse J774 cells at 10 uM preincubated for 15 mins measured after 30 mins by radioimmunoassay relative to control
Format: cell-based
Value Kind: inhibition (%)

molecule="Cc1c(C(N)C(=O)OCCCO[N+](=O)[O-])cc(-c2ccc(S(C)(=O)=O)cc2)n1-c1ccc(F)cc1 (stereo not drawn)" recorded_value=0
molecule="Cc1c(C(N)C(=O)OCCCCO)cc(-c2ccc(S(C)(=O)=O)cc2)n1-c1cccc(F)c1 (stereo not drawn)" recorded_value=23

I. Cc1c(C(N)C(=O)OCCCCO)cc(-c2ccc(S(C)(=O)=O)cc2)n1-c1ccc(F)cc1 (stereo not drawn)
II. Cc1c(C(N)C(=O)OCCCCO[N+](=O)[O-])cc(-c2ccc(S(C)(=O)=O)cc2)n1-c1cccc(F)c1 (stereo not drawn)
IN: Rank I against II by their inhibition values and give the higher one. Use the label to indicate which entry you chose.
OUT: II
(II: 15%, I: 10%)

1. Cc1c(C(N)C(=O)OCCCCO[N+](=O)[O-])cc(-c2ccc(S(C)(=O)=O)cc2)n1-c1ccc(F)cc1 (stereo not drawn)
2. Cc1c(C(N)C(=O)OCCCO[N+](=O)[O-])cc(-c2ccc(S(C)(=O)=O)cc2)n1-c1cccc(F)c1 (stereo not drawn)
3. Cc1c(C(N)C(=O)OCCCO)cc(-c2ccc(S(C)(=O)=O)cc2)n1-c1cccc(F)c1 (stereo not drawn)
IN: # ascending order, key=inhibition Output spec: labels arranged per the requested ranking.
OUT: 1, 2, 3
(1: 1%, 2: 5%, 3: 30%)

----------
Molecular target: Prostaglandin G/H synthase 2 (Mus musculus)
Sequence (whole entry): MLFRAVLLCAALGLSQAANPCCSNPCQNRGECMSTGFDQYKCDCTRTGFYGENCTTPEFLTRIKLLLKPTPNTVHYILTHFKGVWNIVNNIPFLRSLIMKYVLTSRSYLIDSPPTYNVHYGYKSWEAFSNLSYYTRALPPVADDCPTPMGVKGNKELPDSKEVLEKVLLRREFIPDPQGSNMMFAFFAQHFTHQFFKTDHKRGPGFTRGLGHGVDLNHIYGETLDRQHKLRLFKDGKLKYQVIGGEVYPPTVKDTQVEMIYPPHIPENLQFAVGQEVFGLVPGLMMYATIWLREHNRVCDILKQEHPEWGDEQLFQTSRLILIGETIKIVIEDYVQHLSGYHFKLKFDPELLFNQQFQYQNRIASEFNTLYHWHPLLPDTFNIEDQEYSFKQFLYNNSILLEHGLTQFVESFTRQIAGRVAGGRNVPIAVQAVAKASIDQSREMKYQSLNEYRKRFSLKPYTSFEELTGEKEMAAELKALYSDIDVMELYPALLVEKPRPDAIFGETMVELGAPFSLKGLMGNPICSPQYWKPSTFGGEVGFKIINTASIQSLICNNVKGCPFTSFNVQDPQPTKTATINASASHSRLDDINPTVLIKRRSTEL
Assay: Inhibition of COX2-mediated PGE2 production in LPS-induced mouse J774 cells by radioimmunoassay relative to control
Type: cell-based
Set-up: concentration or dose not given beside the values
Conditions: concentration not given here
Value Kind: inhibition (%)

Would you please look over these solved cases?
compound="Cc1c(C(N)C(=O)OCCCO)cc(-c2ccc(S(C)(=O)=O)cc2)n1-c1cccc(F)c1 (stereo not drawn)" value_kind=inhibition recorded_value=79
compound="Cc1c(C(N)C(=O)OCCCCO[N+](=O)[O-])cc(-c2ccc(S(C)(=O)=O)cc2)n1-c1ccc(F)cc1 (stereo not drawn)" value_kind=inhibition recorded_value=82
compound="Cc1c(C(N)C(=O)OCCCO[N+](=O)[O-])cc(-c2ccc(S(C)(=O)=O)cc2)n1-c1ccc(F)cc1 (stereo not drawn)" value_kind=inhibition recorded_value=95
compound="Cc1c(C(N)C(=O)OCCCO)cc(-c2ccc(S(C)(=O)=O)cc2)n1-c1ccc(F)cc1 (stereo not drawn)" value_kind=inhibition recorded_value=100
compound="Cc1c(C(N)C(=O)OCCCCO)cc(-c2ccc(S(C)(=O)=O)cc2)n1-c1cccc(F)c1 (stereo not drawn)" value_kind=inhibition recorded_value=100
compound="Cc1c(C(N)C(=O)OCCCO[N+](=O)[O-])cc(-c2ccc(S(C)(=O)=O)cc2)n1-c1cccc(F)c1 (stereo not drawn)" value_kind=inhibition recorded_value=100

a. Cc1c(C(N)C(=O)OCCCCO)cc(-c2ccc(S(C)(=O)=O)cc2)n1-c1ccc(F)cc1 (stereo not drawn)
b. Cc1c(C(N)C(=O)OCCCCO[N+](=O)[O-])cc(-c2ccc(S(C)(=O)=O)cc2)n1-c1cccc(F)c1 (stereo not drawn)
IN: Identify the entry with the smaller inhibition: a or b . Use the label to indicate which entry you chose.
OUT: b
(b: 59%, a: 100%)
